Reference for the values: patent US20130035329A1

Biological target: IDH1 R132H (Homo sapiens, UniProt O75874, R132H)
Sequence (O75874 whole entry R132H): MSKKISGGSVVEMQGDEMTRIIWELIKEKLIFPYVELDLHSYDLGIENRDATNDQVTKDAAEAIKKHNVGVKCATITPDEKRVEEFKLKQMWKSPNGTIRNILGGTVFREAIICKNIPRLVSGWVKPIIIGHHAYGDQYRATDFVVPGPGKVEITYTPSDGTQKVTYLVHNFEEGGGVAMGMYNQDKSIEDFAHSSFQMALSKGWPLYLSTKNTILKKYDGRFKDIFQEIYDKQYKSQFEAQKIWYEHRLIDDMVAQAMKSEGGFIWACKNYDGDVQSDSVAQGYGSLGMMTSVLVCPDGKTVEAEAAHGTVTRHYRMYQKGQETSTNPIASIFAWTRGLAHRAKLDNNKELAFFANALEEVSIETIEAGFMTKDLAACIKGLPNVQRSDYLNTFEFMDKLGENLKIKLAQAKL
Assay: High Throughput Screening (HTS) for IDH1 R132H inhibitors (resazurin/NADPH fluorescence assay)
Format: biochemical
Settings: IDH1m; assay similar to Example 1; class symbols
OBSERVED PROPERTY: IC50

Worked cases, IC50 given:
compound=CCCCc1ccc(NS(=O)(=O)c2ccc(C)c(C(=O)N3CCN(C(=O)Cc4ccccc4)CC3)c2)cc1 assayed_target="IDH1 R132H (Homo sapiens, UniProt O75874, R132H)" observed_property=IC50 readout_value="1 to 50 µM"
compound=CCCOc1ccc(NS(=O)(=O)c2ccc(C)c(C(=O)N3CCN(c4ccccc4OC)CC3)c2)cc1 assayed_target="IDH1 R132H (Homo sapiens, UniProt O75874, R132H)" observed_property=IC50 readout_value="1 to 50 µM"
compound=CCCCc1ccc(NS(=O)(=O)c2ccc(C)c(C(=O)N3CCN(Cc4cccc(C)c4)CC3)c2)cc1 assayed_target="IDH1 R132H (Homo sapiens, UniProt O75874, R132H)" observed_property=IC50 readout_value="1 to 50 µM"
compound=Cc1ccc(S(=O)(=O)Nc2ccc(Cl)cc2)cc1C(=O)N1CCN(c2ccccc2)CC1 assayed_target="IDH1 R132H (Homo sapiens, UniProt O75874, R132H)" observed_property=IC50 readout_value="> 50 µM"

Now let's try a different one.
// recorded IC50 for `CCCCc1ccc(NS(=O)(=O)c2ccc(C)c(C(=O)N3CCN(C(=O)C4CC4)CC3)c2)cc1` : 1 to 50 µM

* * *

Reported values of IC50 for individual entries
Target: IDH1 R132H (Homo sapiens, UniProt O75874, R132H)
Experiment: High Throughput Screening (HTS) for IDH1 R132H inhibitors (resazurin/NADPH fluorescence assay)
Type: biochemical
Conditions: IDH1m; assay similar to Example 1; class symbols

Worked cases, IC50 given:
compound=CCCCc1ccc(NS(=O)(=O)c2ccc(C)c(C(=O)N3CCN(c4ccccc4F)CC3)c2)cc1 readout_value="1 to 50 µM"
compound=Cc1ccc(NS(=O)(=O)c2cccc(C(=O)N3CCN(c4ccccc4)CC3)c2)cc1 readout_value="> 50 µM"
compound="COC(=O)C(C)Nc1ccc(NS(=O)(=O)c2ccc(C)c(C(=O)N3CCN(c4ccccc4OC)CC3)c2)cc1 (stereo not drawn)" readout_value="1 to 50 µM"

// recorded IC50 for `COc1ccc(NS(=O)(=O)c2cccc(C(=O)N3CCN(c4ccccc4)CC3)c2)cc1` : > 50 µM

* * *

Reported values of pIC50 for individual entries
Biological target: IDH1 R132H (Homo sapiens, UniProt O75874, R132H)
Test: High Throughput Screening (HTS) for IDH1 R132H inhibitors (resazurin/NADPH fluorescence assay)
Format: biochemical
Settings: IDH1m; assay similar to Example 1; class symbols
Experimental: A compound described herein may be an inhibitor of IDH1m. […] B refers to an inhibitor of IDH1m with an IC50 between 1 μM and 50 μM. C refers to an inhibitor of IDH1m with an IC50 greater than 50 μM. D refers to a compound wherein an IC50 is not available. […]
pIC50: −log10 of the molar value.

compound="CCCCc1ccc(NS(=O)(=O)c2ccc(C)c(C(=O)N3CCN(C(C)c4ccccc4)CC3)c2)cc1 (centres unmarked)" observed_property=pIC50 readout_value="4.30 to 6.00"
compound=CCCCc1ccc(NS(=O)(=O)c2ccc(C)c(C(=O)N3CCN(c4cccc(C(F)(F)F)c4)CC3)c2)cc1 observed_property=pIC50 readout_value="4.30 to 6.00"
compound=CCCCc1ccc(NS(=O)(=O)c2cc3c(c(C(=O)N4CCN(c5ccccc5OC)CC4)c2)OCCN3)cc1 observed_property=pIC50 readout_value="4.30 to 6.00"

// recorded pIC50 for `COc1ccccc1N1CCN(C(=O)c2cc(S(=O)(=O)Nc3cccc4cccnc34)ccc2C)CC1` : 4.30 to 6.00

// recorded pIC50 for `COc1ccccc1N1CCN(C(=O)c2cc(S(=O)(=O)Nc3ccc(OCc4cn(Cc5ccccc5)nn4)cc3)ccc2C)CC1` : 4.30 to 6.00

// recorded pIC50 for `CCCCc1ccc(NS(=O)(=O)c2cccc(C(=O)N3CCN(c4ncc(C(F)(F)F)cc4Cl)CC3)c2)cc1` : 4.30 to 6.00

// recorded pIC50 for `CCCCc1ccc(NS(=O)(=O)c2cccc(C(=O)N3CCN(c4ccccc4OC)CC3)c2)c(C(=O)O)c1` : 4.30 to 6.00

// recorded pIC50 for `CCCCc1ccc(NS(=O)(=O)c2ccc(C)c(C(=O)N3CCN(c4ccccc4OCC(C)C)CC3)c2)cc1` : 4.30 to 6.00

// recorded pIC50 for `CCCCc1ccc(NS(=O)(=O)c2ccc(C)c(C(=O)N3CCN(c4ccc(F)c(OC)c4)CC3)c2)cc1` : 4.30 to 6.00

// recorded pIC50 for `CCCc1ccc(NS(=O)(=O)c2cccc(C(=O)N3CCN(c4ccccc4)CC3)c2)cc1` : 4.30 to 6.00

// recorded pIC50 for `CCCCc1ccc(NS(=O)(=O)c2ccc(C)c(C(=O)N3CCN(c4ccccc4-c4ccccc4)CC3)c2)cc1` : 4.30 to 6.00

// recorded pIC50 for `O=C(c1cccc(S(=O)(=O)Nc2ccccc2F)c1)N1CCN(c2ccccc2)CC1` : < 4.30

// recorded pIC50 for `CCCCc1ccc(NS(=O)(=O)c2ccc(C)c(C(=O)N3CCN(c4ccccn4)CC3)c2)cc1` : 4.30 to 6.00

// recorded pIC50 for `CCCCc1ccc(NS(=O)(=O)c2cccc(C(=O)N3CCN(c4ccccc4OC)CC3)c2)cc1` : 4.30 to 6.00

// recorded pIC50 for `CCCCc1ccc(NS(=O)(=O)c2ccc(C)c(C(=O)N3CCN(c4ccc(Cl)cc4)CC3)c2)cc1` : 4.30 to 6.00

* * *

Reported values of IC50 for individual entries
Biological target: IDH1 R132H (Homo sapiens, UniProt O75874, R132H)
Experiment: High Throughput Screening (HTS) for IDH1 R132H inhibitors (resazurin/NADPH fluorescence assay)
Type: biochemical
Conditions: IDH1m; assay similar to Example 1; class symbols

Worked cases, IC50 given:
molecule_smiles=CCOc1ccc(NS(=O)(=O)c2ccc(C)c(C(=O)N3CCN(c4ccccn4)CC3)c2)cc1 readout_value="> 50 µM"
molecule_smiles=CCCCc1ccc(NS(=O)(=O)c2ccc(C)c(C(=O)N3CCN(C(=O)c4ccccc4)CC3)c2)cc1 readout_value="1 to 50 µM"

// recorded IC50 for `CCCCOc1ccc(NS(=O)(=O)c2ccc(C)c(C(=O)N3CCN(c4ccccc4OC)CC3)c2)c(C)c1C` : 1 to 50 µM

// recorded IC50 for `CCCCc1ccc(NS(=O)(=O)c2ccc(C)c(C(=O)N3CCN(c4ccccc4C(F)(F)F)CC3)c2)cc1` : 1 to 50 µM

// recorded IC50 for `COc1ccc(NS(=O)(=O)c2cccc(C(=O)N3CCCN(c4ccccc4OC)CC3)c2)cc1` : > 50 µM

// recorded IC50 for `CCCCc1ccc(NS(=O)(=O)c2ccc(N3CCOCC3)c(C(=O)N3CCN(c4ccccc4OC)CC3)c2)cc1` : 1 to 50 µM

* * *

Molecular target: IDH1 R132H (Homo sapiens, UniProt O75874, R132H)
Assay: High Throughput Screening (HTS) for IDH1 R132H inhibitors (resazurin/NADPH fluorescence assay)
Assay type: biochemical
Conditions: IDH1m; assay similar to Example 1; class symbols
pIC50: −log10 of the molar value.
OBSERVED PROPERTY: pIC50

molecule_smiles=CCCCc1ccc(NS(=O)(=O)c2ccc(C)c(C(=O)N3CCN(c4ccccc4OC)CC3)c2)cc1 observed_property=pIC50 readout_value="> 6.00"
molecule_smiles=CCOC(=O)COc1ccc(NS(=O)(=O)c2ccc(C)c(C(=O)N3CCN(c4ccccc4OC)CC3)c2)cc1 observed_property=pIC50 readout_value="4.30 to 6.00"
molecule_smiles=COCOc1ccc(NS(=O)(=O)c2ccc(C)c(C(=O)N3CCN(c4ccccc4C)CC3)c2)cc1 observed_property=pIC50 readout_value="4.30 to 6.00"

// recorded pIC50 for `COc1ccccc1N1CCN(C(=O)c2cc(S(=O)(=O)Nc3ccccc3)ccc2C)CC1` : < 4.30

// recorded pIC50 for `CCCCc1ccc(NS(=O)(=O)c2cccc(C(=O)N3CCN(c4ccncc4)CC3)c2)cc1` : 4.30 to 6.00
